test system: Mycobacterium tuberculosis; assay: Antitubercular activity against rifampin-resistant Mycobacterium tuberculosis H37Rv ATCC 35838 after 7 days under normoxic condition by microplate Alamar blue assay; assay type: functional; details: H37Rv ATCC 35838, 168 h
Measure: log10 of MIC90 (log10 of the value in µM)

[
  {
    "Molecule": "CSc1ccc(C(=O)/C=C/c2ccc([N+](=O)[O-])s2)cc1",
    "log10 of MIC90": -0.85
  },
  {
    "Molecule": "O=C(/C=C/c1ccc([N+](=O)[O-])o1)c1ccc(N2CCCCC2)cc1",
    "log10 of MIC90": -1.15
  },
  {
    "Molecule": "CCCCc1ccc(C(=O)/C=C/c2ccc([N+](=O)[O-])o2)cc1",
    "log10 of MIC90": 0.67
  },
  {
    "Molecule": "CC(C)(C)c1ccc(C(=O)/C=C/c2ccc([N+](=O)[O-])s2)cc1",
    "log10 of MIC90": -0.85
  },
  {
    "Molecule": "CC(C)(C)c1ccc(C(=O)/C=C/c2ccc([N+](=O)[O-])o2)cc1",
    "log10 of MIC90": -0.54
  },
  {
    "Molecule": "O=C(/C=C/c1ccc([N+](=O)[O-])o1)c1ccc(N2CCNCC2)cc1",
    "log10 of MIC90": -0.12
  },
  {
    "Molecule": "CSc1ccc(C(=O)/C=C/c2ccc([N+](=O)[O-])o2)cc1",
    "log10 of MIC90": -0.62
  },
  {
    "Molecule": "O=C(/C=C/c1ccc([N+](=O)[O-])o1)c1ccc(-n2ccnc2)cc1",
    "log10 of MIC90": 0.08
  },
  {
    "Molecule": "Cc1ccc(C(=O)/C=C/c2ccc([N+](=O)[O-])s2)cc1",
    "log10 of MIC90": 0.08
  },
  {
    "Molecule": "O=C(/C=C/c1ccc(Cl)s1)c1ccc(-n2ccnc2)cc1",
    "log10 of MIC90": 0.95
  },
  {
    "Molecule": "O=C(/C=C/c1ccc([N+](=O)[O-])o1)c1ccc(-c2ccccc2)cc1",
    "log10 of MIC90": 0.54
  },
  {
    "Molecule": "O=C(/C=C/c1ccc([N+](=O)[O-])o1)c1ccc(N2CCOCC2)cc1",
    "log10 of MIC90": -0.26
  },
  {
    "Molecule": "O=C(/C=C/c1ccc([N+](=O)[O-])o1)c1ccc(Br)cc1",
    "log10 of MIC90": -0.12
  },
  {
    "Molecule": "O=C(/C=C/c1ccc([N+](=O)[O-])o1)c1cccc(Br)c1",
    "log10 of MIC90": 0.27
  },
  {
    "Molecule": "O=C(/C=C/c1ccc([N+](=O)[O-])s1)c1ccc(-n2ccnc2)cc1",
    "log10 of MIC90": -0.22
  },
  {
    "Molecule": "COc1ccc(/C=C/C(=O)c2cccc(I)c2)cc1",
    "log10 of MIC90": 0.92
  },
  {
    "Molecule": "Cc1cccc(C(=O)/C=C/c2ccc([N+](=O)[O-])o2)c1",
    "log10 of MIC90": 0.58
  },
  {
    "Molecule": "O=C(/C=C/c1ccc([N+](=O)[O-])o1)c1ccc(C2CCCCC2)cc1",
    "log10 of MIC90": 0.05
  },
  {
    "Molecule": "Cc1ccccc1C(=O)/C=C/c1ccc([N+](=O)[O-])o1",
    "log10 of MIC90": 0.03
  }
]

----------
system: Mycobacterium tuberculosis; assay: Antitubercular activity against rifampin-resistant Mycobacterium tuberculosis H37Rv ATCC 35838 after 7 days under normoxic condition by microplate Alamar blue assay; format: functional; settings: H37Rv ATCC 35838, 168 h
Each entry below carries its recorded MIC90.
Measure: MIC90 (µM)

[
  {
    "Molecule": "O=C(/C=C/c1ccc([N+](=O)[O-])o1)c1ccc(I)cc1",
    "Measure": "MIC90",
    "Measurement units": "µM",
    "Test value": 1.18
  },
  {
    "Molecule": "CCCCc1ccc(C(=O)/C=C/c2ccc([N+](=O)[O-])s2)cc1",
    "Measure": "MIC90",
    "Measurement units": "µM",
    "Test value": 0.48
  },
  {
    "Molecule": "COc1ccc(/C=C/C(=O)c2cccc(Br)c2)cc1",
    "Measure": "MIC90",
    "Measurement units": "µM",
    "Test value": 9.28
  }
]
